Kindly state CC50 for each of the entries shown.
ASSAY INFO: Cytotoxicity against human HuH7 cells
Format: cell-based, Huh-7

## Input Report CC50 for C=C1[C@H](CO)[C@@H](O)C[C@@H]1n1cnc2c(=O)[nH]c(N)nc21.O [ENTECAVIR] please.
## Output 28 µM

## Input Which CC50 is reported for this compound? "C=C1[C@@H](n2cnc3c(N)ncnc32)[C@H](F)[C@H](O)[C@H]1CO"
## Output > 300 µM

## Input What CC50 value was documented for this compound, Nc1ccn([C@@H]2CS[C@H](CO)O2)c(=O)n1 [LAMIVUDINE] ?
## Output > 300 µM

## Input What value of CC50 has been reported for the following compound? C=C1[C@@H](n2cnc3c(N)ncnc32)[C@H](F)[C@H](O)[C@H]1COP(=O)(N[C@@H](C)C(=O)OC)Oc1ccccc1 (some centres undefined)
## Output > 300 µM
